Some binders, each annotated with its measured koff.
Target: T1, human pro-myostatin (human, UniProt O14793 24-375, biotinylated (in the SPR assay))
T1 construct: Disulfide-linked homodimer; also called proGDF8 (human)
Assay: SPR Biacore 8K, biotin-antigen captured
API: value field is a number in s⁻¹; no unit string.

binder="Ab105 (antibody, human IgG4 S228P, kappa, V domains shown) VH: EVQLVESGGGLVQPGGSLRLSCAASGSAFSSYGMSWVRQAPGKGLELVASIGGTGATYYPDSVKGRFTISRDNAKNSLYLQMNSLRAEDTAVYYCARDLLVRFLEWGHYYGMDVWGQGTTVTVSS VL: DIVMTQSPLSLPVTPGEPASISCRSSQSLLHSSGYNFLHWYLQKPGQSPQLLIYAASSRAPGIPDRFSGSGSGTDFTLKISRVEAEDVGVYYCMHGGQGPTFGGGTKVEIKR" recorded_endpoint=koff number=0.000247

Below: the item to evaluate.
query: Param item = Ab114 (antibody, human IgG4 S228P, kappa, V domains shown) VH: QVQLVQSGAEVKKPGASVKVSCKVSGGTFRSYTIHWVRQAPGKGLEWMGGMNPSSGHTIYAQKFQGRVTMTEDTSTDTAYMELSSLKSEDTAVYYCARGLDYGEGYYYYGMDVWGQGTTVTVSS VL: DIQMTQSPSSVSASVGDRVTITCRASQGISESLAWYQQKPGKAPKLLIYSASSLESGVPSRFSGSGSGTDFTLTISSLQPEDFANYYCQQGYSSPPYTFGGGTKVEIKR ; retrieve measured koff.
result: 0.00735
